- targetSystem: Recombinant human JAK2 kinase domain protein (Residues 812-1132) (Homo sapiens, UniProt O60674)
- Construct: human JAK2 kinase domain protein (Residues 812-1132)
- Sequence (O60674 812-1132): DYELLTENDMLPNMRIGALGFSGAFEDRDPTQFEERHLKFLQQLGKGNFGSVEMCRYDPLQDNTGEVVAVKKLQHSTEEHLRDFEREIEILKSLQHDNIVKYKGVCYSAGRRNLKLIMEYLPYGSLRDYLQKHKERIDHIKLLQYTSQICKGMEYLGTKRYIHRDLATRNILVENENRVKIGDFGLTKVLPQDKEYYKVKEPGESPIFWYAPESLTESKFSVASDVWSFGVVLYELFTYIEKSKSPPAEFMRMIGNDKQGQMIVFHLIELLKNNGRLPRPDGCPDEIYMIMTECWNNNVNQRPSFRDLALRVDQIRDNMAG
- assayProtocol: JAK2 biochemical assay (microfluidic mobility shift, peptide phosphorylation)
- runParameters: 25 μM ATP, 0.2 nM total JAK2; Ki calculated from Ki app (tight-binding, competitive); read-out: Biochem JAK2 Ki
observationType: pKi
In plain terms, pKi is the concentration in mol/L turned into minus its base-10 logarithm.

Request: pKi lookup needed for CN(C)CCCN1CC(n2nnnc2Cn2cc(NC(=O)c3cnn4cccnc34)c(-c3cc(OC(F)F)ccc3OC(F)F)n2)C1 [Example 65] , thanks.
Response: 9.42

Request: Another compound to check: CN1CCC[C@H]1CN1CC(n2nnc(Cn3cc(NC(=O)c4cnn5cccnc45)c(-c4cc(OC(F)F)ccc4OC(F)F)n3)n2)C1 (racemic) [Example 46, formic acid]
Response: 9.40

Request: Lookup CN(C)CCCCN1CC(n2nnc(Cn3cc(NC(=O)c4cnn5cccnc45)c(-c4cc(OC(F)F)ccc4OC(F)F)n3)n2)C1 [Example 55]
Response: 9.24

Request: Next compound up: CN1CCC[C@H]1CN1CC(n2nnc(Cn3cc(NC(=O)c4cnn5cccnc45)c(-c4cc(OC(F)F)ccc4OC(F)F)n3)n2)C1 (racemic) [Example 52]
Response: 9.41

Request: Also check CN1CC(n2nnnc2Cn2cc(NC(=O)c3cnn4cccnc34)c(-c3cc(Cl)ccc3OC(F)F)n2)C1 [Example 15]
Response: 10.04

Request: Subsequent entry: CN1CCC(n2nnc(Cn3cc(NC(=O)c4cnn5cccnc45)c(-c4cc(OC(F)F)ccc4OC(F)F)n3)n2)C1 (single isomer, unassigned) [Example 29]
Response: 9.60

Request: Okay, and CN(C)CCN1CCC(n2nnc(Cn3cc(NC(=O)c4cnn5cccnc45)c(-c4cc(OC(F)F)ccc4OC(F)F)n3)n2)C1 (single isomer, unassigned) [Example 67] ?
Response: 9.38

Request: Similarly, CN(C)CCN1CC(n2nnc(Cn3cc(NC(=O)c4cnn5cccnc45)c(-c4cc(OC(F)F)ccc4OC(F)F)n3)n2)C1 [Example 21] ?
Response: 9.41

Request: Also need CN1CCC(n2nnc(Cn3cc(NC(=O)c4cnn5cccnc45)c(-c4cc(OC(F)F)ccc4OC(F)F)n3)n2)CC1 [Example 22] , thanks.
Response: 9.52

Request: Next compound: CN(C)CCCN1CC(n2nnc(Cn3cc(NC(=O)c4cnn5cccnc45)c(-c4cc(Cl)ccc4OC(F)F)n3)n2)C1 [Example 62]
Response: 9.42

Request: Try CN1CC(Cn2nnnc2Cn2cc(NC(=O)c3cnn4cccnc34)c(-c3cc(OC(F)F)ccc3OC(F)F)n2)C1 [Example 33] next.
Response: 9.25

Request: Check O=C(Nc1cn(Cc2nnn(C3CCNCC3)n2)nc1-c1cc(OC(F)F)ccc1OC(F)F)c1cnn2cccnc12 [Example 18] too.
Response: 9.37

Request: Input CN1CCC(N2CC(n3nnc(Cn4cc(NC(=O)c5cnn6cccnc56)c(-c5cc(OC(F)F)ccc5OC(F)F)n4)n3)C2)CC1 [Example 38]
Response: 9.36

Request: Please do the same for CN1CC(n2nnc(Cn3cc(NC(=O)c4cnn5cccnc45)c(-c4cc(Cl)ccc4OC(F)F)n3)n2)C1 [Example 7] as well.
Response: 9.77

Request: Could you do the same for CN(C)C1CCC(N2CC(n3nnc(Cn4cc(NC(=O)c5cnn6cccnc56)c(-c5cc(OC(F)F)ccc5OC(F)F)n4)n3)C2)C1 (single isomer, unassigned) [Example 74] , please?
Response: 9.33

Request: Same lookup for CN1CCC(n2nnc(Cn3cc(NC(=O)c4cnn5cccnc45)c(-c4cc(OC(F)F)ccc4OC(F)F)n3)n2)C1 (single isomer, unassigned) [Example 30] , please.
Response: 9.51

Request: Also CN(C)CCN(C)C1CC(n2nnc(Cn3cc(NC(=O)c4cnn5cccnc45)c(-c4cc(OC(F)F)ccc4OC(F)F)n3)n2)C1 (single isomer, unassigned) [Example 81, formic acid] , if possible.
Response: 9.33

Request: Then this compound: CN(C)CCn1nnc(Cn2cc(NC(=O)c3cnn4cccnc34)c(-c3cc(OC(F)F)ccc3OC(F)F)n2)n1 [Example 16]
Response: 9.57

Request: Check CSc1ccc(OC(F)F)c(-c2nn(Cc3nnn(C4CN(CCCN(C)C)C4)n3)cc2NC(=O)c2cnn3cccnc23)c1 [Example 58] too.
Response: 9.42

Request: Now consider CN1CC(n2nnc(Cn3cc(NC(=O)c4cnn5cccnc45)c(-c4cc(OC(F)F)ccc4OC(F)F)n3)n2)C1 [Example 10] and answer again.
Response: 9.62

Request: // same read-out, input: CN1CC(Cn2nnc(Cn3cc(NC(=O)c4cnn5cccnc45)c(-c4cc(OC(F)F)ccc4OC(F)F)n3)n2)C1 [Example 32]
Response: 9.21

Request: Item: CN1CCN(CCn2nnnc2Cn2cc(NC(=O)c3cnn4cccnc34)c(-c3cc(Cl)ccc3OC(F)F)n2)CC1 [Example 42]
Response: 9.66

Request: CN(C)[C@H]1C[C@H](n2nnc(Cn3cc(NC(=O)c4cnn5cccnc45)c(-c4cc(OC(F)F)ccc4OC(F)F)n3)n2)C1 [Example 64, formic acid] , same question.
Response: 9.26

Request: How about this compound: CN(C)C(C)(C)CCN1CC(n2nnc(Cn3cc(NC(=O)c4cnn5cccnc45)c(-c4cc(OC(F)F)ccc4OC(F)F)n3)n2)C1 [Example 77]
Response: 9.41

Request: Now give it for CN(C)C1CCC(N2CC(n3nnc(Cn4cc(NC(=O)c5cnn6cccnc56)c(-c5cc(OC(F)F)ccc5OC(F)F)n4)n3)C2)C1 (single isomer, unassigned) [Example 76] too.
Response: 8.72

// data source = patent US12247032B2
